- test.target: T1, human B7-H4 (purified monomeric recombinant human protein, ACRO biosystems) (human, UniProt Q7Z7D3 29-258, limits assumed, chemically biotinylated (EZ-Link NHS-LC-Biotin) in the yeast display and competition experiments; non-biotinylated in SPR)
- T1 construct: Bought recombinant monomeric protein; also called B7x; B7S1
- T1 sequence: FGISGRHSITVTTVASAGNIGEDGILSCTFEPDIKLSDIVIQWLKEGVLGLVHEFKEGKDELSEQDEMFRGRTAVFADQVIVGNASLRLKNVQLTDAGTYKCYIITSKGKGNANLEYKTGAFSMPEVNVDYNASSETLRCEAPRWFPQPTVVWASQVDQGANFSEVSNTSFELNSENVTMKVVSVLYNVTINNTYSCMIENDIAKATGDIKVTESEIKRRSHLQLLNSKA
- test.name: SPR (Carterra LSA); scFv-Fc captured on anti-human IgG Fc, antigen injected
experimental.readout: KD fold-improvement (fold over parental)
Numbers only; they are read as fold over parental.

binder: A02 scFv-Fc (scFv, V domains shown, Tested as scFv-Fc fusion (human IgG1 Fc, vector pDNL9) in crude yeast supernatant; Combo 1 library) VH: EVQLVESGGGVVQPGRSLRLSCAASGFTFTSRAMNWVRQAPGKGLEWVSAISYEGRTQYYADSVKGRFTISRDNSKNTLYLQMNSLRAEDTAVYYCARKRWYGMDVWGQGTTVTVSS VL: SYELTQPPSVSVAPGKTARITCGGNNIGSKSVHWYQQKPGQAPVLVVYDDSDRPSGIPERFSGSNSGNTATLTISRVEAGDEADYYCQVWDRGMIFGTGTKLTVL
quantity.unit: fold over parental
reported.measurement: 188

[ask] Name the reported KD fold-improvement value associated with the binder B11 scFv-Fc (scFv, V domains shown, Tested as scFv-Fc fusion (human IgG1 Fc, vector pDNL9) in crude yeast supernatant; Combo 2 library) VH: EVQLVESGGGVVQPGRSLRLSCAASGFTFTSRAMNWVRQAPGKGLEWVSAISGSGATAYYADSVKGRFTISRDNSKNTLYLQMNSLRAEDTAVYYCARKRWYGMDVWGQGTTVTVSS VL: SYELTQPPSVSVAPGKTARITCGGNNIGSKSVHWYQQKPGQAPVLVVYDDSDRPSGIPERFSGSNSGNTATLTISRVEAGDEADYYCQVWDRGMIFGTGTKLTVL
[reply] 109

[ask] Name the reported KD fold-improvement value associated with the binder A08 scFv-Fc (scFv, V domains shown, Tested as scFv-Fc fusion (human IgG1 Fc, vector pDNL9) in crude yeast supernatant; Combo 2 library) VH: EVQLVESGGGVVQPGRSLRLSCAASGFTFGDRAMNWVRQAPGKGLEWVSAISSSGTTSYYADSVKGRFTISRDNSKNTLYLQMNSLRAEDTAVYYCARKRWYGMDVWGQGTTVTVSS VL: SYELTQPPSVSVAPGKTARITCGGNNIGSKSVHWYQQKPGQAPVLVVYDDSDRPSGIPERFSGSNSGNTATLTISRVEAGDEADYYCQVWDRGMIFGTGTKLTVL
[reply] 172

[ask] Name the reported KD fold-improvement value associated with the binder B05 scFv-Fc (scFv, V domains shown, Tested as scFv-Fc fusion (human IgG1 Fc, vector pDNL9) in crude yeast supernatant; Combo 1 library) VH: EVQLVESGGGVVQPGRSLRLSCAASGLTFSSRAMNWVRQAPGKGLEWVSAISGTGATTYYADSVKGRFTISRDNSKNTLYLQMNSLRAEDTAVYYCARKRWYGMDVWGQGTTVTVSS VL: SYELTQPPSVSVAPGKTARITCGGNNIGSKMVHWYQQKPGQAPVLVVYDDSDRPSGIPERFSGSNSGNTATLTISRVEAGDEADYYCQVWDRGMIFGTGTKLTVL
[reply] 109

[ask] Name the reported KD fold-improvement value associated with the binder A09 scFv-Fc (scFv, V domains shown, Tested as scFv-Fc fusion (human IgG1 Fc, vector pDNL9) in crude yeast supernatant; Combo 2 library) VH: EVQLVESGGGVVQPGRSLRLSCAASGFTFSSRSMNWVRQAPGKGLEWVSAISGSGLTSYYADSVKGRFTISRDNSKNTLYLQMNSLRAEDTAVYYCARKRWYGMDVWGQGTTVTVSS VL: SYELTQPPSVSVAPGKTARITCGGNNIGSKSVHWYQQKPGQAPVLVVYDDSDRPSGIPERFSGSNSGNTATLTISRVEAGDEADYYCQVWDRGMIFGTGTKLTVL
[reply] 100

[ask] Name the reported KD fold-improvement value associated with the binder A12 scFv-Fc (scFv, V domains shown, Tested as scFv-Fc fusion (human IgG1 Fc, vector pDNL9) in crude yeast supernatant; Combo 2 library) VH: EVQLVESGGGVVQPGRSLRLSCAASGFTFDNRAMNWVRQAPGKGLEWVSAISSSGSTMYYADSVKGRFTISRDNSKNTLYLQMNSLRAEDTAVYYCARKRWYGMDVWGQGTTVTVSS VL: SYELTQPPSVSVAPGKTARITCGGNNIGSKSVHWYQQKPGQAPVLVVYDDSDRPSGIPERFSGSNSGNTATLTISRVEAGDEADYYCQVWDSRTYVFGTGTKLTVL
[reply] 53
